- Test system: HT1080 (connective tissue)
- protocol_text: Proliferation Assay
- Type: cell-based
- measurement_parameters: Homo sapiens, HT-1080, 72 h, read-out: IC50 inhibition of cell growth
- Method: For the determination of the inhibitory capacity of compounds of the present invention (in the following: “test compound(s)”) on cell growth, cancer cells were seeded into microtitre plates, treated with different concentrations of test compound or left untreated, and after 72 h the protein content was determined as an equivalent for the cell number. Test compounds were dissolved in 100% DMSO and predilutions in cell culture medium were prepared with a final concentration of 0.1% DMSO in medium. […]

smiles	IC50
COc1cccc(C(=O)Nc2nc3cc4c(cc3[nH]2)OC(F)(F)O4)c1	≤ 1 µM

---

# Lookup of reported pIC50 keyed by entry
- system_name: Casein kinase 1 delta (CSKN1D) (Homo sapiens)
- Sequence (P48730 whole entry): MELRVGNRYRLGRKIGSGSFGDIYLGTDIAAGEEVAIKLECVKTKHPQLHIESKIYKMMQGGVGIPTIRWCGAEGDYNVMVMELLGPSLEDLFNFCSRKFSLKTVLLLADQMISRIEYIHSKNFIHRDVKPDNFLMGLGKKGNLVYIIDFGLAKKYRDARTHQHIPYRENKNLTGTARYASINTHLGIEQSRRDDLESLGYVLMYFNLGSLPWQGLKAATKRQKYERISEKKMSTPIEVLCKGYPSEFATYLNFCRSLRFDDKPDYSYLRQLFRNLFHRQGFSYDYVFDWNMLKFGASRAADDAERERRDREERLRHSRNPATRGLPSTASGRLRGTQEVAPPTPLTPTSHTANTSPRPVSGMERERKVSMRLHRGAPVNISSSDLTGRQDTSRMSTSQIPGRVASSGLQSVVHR
- protocol_text: Casein kinase assay, CK1 delta
- measurement_parameters: recombinant CSKN1D 5 nM, ATP 10 μM
pIC50: −log10 of the molar value.

molecule	pIC50
O=C(Nc1nc2cc3c(cc2[nH]1)OC(F)(F)O3)c1ccccc1	> 6.70
O=C(Nc1nc2cc3c(cc2[nH]1)OC(F)(F)O3)c1cccc(OC(F)F)c1	> 6.70
O=C(Nc1nc2cc3c(cc2[nH]1)OC(F)(F)O3)c1ccccn1	< 6.00
Cc1ccc(C(=O)Nc2nc3cc4c(cc3[nH]2)OC(F)(F)O4)cc1	< 6.00
Nc1ccc(C(=O)Nc2nc3cc4c(cc3[nH]2)OC(F)(F)O4)cc1	> 6.70
O=C(Nc1nc2cc3c(cc2[nH]1)OC(F)(F)O3)c1cncc(-c2cccs2)c1 [Compound 23B]	> 6.70
Cc1occc1C(=O)Nc1nc2cc3c(cc2[nH]1)OC(F)(F)O3	> 6.70
O=C(Nc1nc2cc3c(cc2[nH]1)OC(F)(F)O3)c1cscn1	6.00 to 6.70
O=C(Nc1nc2cc3c(cc2[nH]1)OC(F)(F)O3)c1cccc(-n2cnnn2)c1	> 6.70
O=C(Nc1nc2cc3c(cc2[nH]1)OC(F)(F)O3)c1nsc(NC(=O)c2ccccc2OC(F)(F)F)n1	> 6.70
CCNc1ccc(C(=O)Nc2nc3cc4c(cc3[nH]2)OC(F)(F)O4)cc1	> 6.70
O=C(Nc1nc2cc3c(cc2[nH]1)OC(F)(F)O3)c1csc([N+](=O)[O-])c1	> 6.70
O=C(Nc1nc2cc3c(cc2[nH]1)OC(F)(F)O3)c1cccc(Cl)c1	> 6.70
O=C(Nc1nc2cc3c(cc2[nH]1)OC(F)(F)O3)c1csc(-c2cccc(OC(F)(F)F)c2)n1 [Compound 19B]	6.00 to 6.70
Nc1ccc(C(=O)Nc2nc3cc4c(cc3[nH]2)OC(F)(F)O4)cc1F	6.00 to 6.70
CC(=O)c1c[nH]c(C(=O)Nc2nc3cc4c(cc3[nH]2)OC(F)(F)O4)c1	> 6.70
O=C(Nc1nc2cc3c(cc2[nH]1)OC(F)(F)O3)c1csc(-c2cccc(Cl)c2)n1 [Compound 17B]	> 6.70

---

- system_name: Casein kinase 1 epsilon (CSKN1E) (Homo sapiens)
- Sequence (P49674 whole entry): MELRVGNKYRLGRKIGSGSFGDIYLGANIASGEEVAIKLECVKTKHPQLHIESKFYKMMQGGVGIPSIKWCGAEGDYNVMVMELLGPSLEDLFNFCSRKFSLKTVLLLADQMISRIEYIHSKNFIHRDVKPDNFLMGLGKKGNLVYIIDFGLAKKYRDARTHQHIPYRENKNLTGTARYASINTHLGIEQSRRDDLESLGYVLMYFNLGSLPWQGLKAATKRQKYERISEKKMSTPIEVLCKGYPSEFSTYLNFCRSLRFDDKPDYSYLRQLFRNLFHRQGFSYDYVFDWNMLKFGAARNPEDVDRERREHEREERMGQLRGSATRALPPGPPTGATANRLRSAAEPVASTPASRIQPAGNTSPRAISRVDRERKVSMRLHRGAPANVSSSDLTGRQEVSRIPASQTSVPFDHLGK
- protocol_text: Casein kinase assay, CK1 epsilon
- measurement_parameters: recombinant CSKN1E 30 nM, ATP 10 μM
result_type: IC50

molecule	reported_result
O=C(Nc1nc2cc3c(cc2[nH]1)OC(F)(F)O3)c1csc(Nc2ccc(OC(F)(F)F)cc2)n1	> 1000 nM
O=C(Nc1nc2cc3c(cc2[nH]1)OC(F)(F)O3)c1csc(-c2ccc(C(F)(F)F)cc2)n1	> 1000 nM
O=C(Nc1nc2cc3c(cc2[nH]1)OC(F)(F)O3)c1coc(N2CCOCC2)n1	200 to 1000 nM
O=C(Nc1nc2cc3c(cc2[nH]1)OC(F)(F)O3)c1cocn1	> 1000 nM
O=C(Nc1nc2cc3c(cc2[nH]1)OC(F)(F)O3)c1cnccn1	> 1000 nM
O=C(Nc1n[nH]c(C(=O)Nc2nc3cc4c(cc3[nH]2)OC(F)(F)O4)n1)c1ccc([N+](=O)[O-])cc1	> 1000 nM
Cc1cc(C(=O)Nc2nc3cc4c(cc3[nH]2)OC(F)(F)O4)c(C)s1	200 to 1000 nM
Nc1sccc1C(=O)Nc1nc2cc3c(cc2[nH]1)OC(F)(F)O3	200 to 1000 nM
O=C(Nc1nc(C(=O)Nc2nc3cc4c(cc3[nH]2)OC(F)(F)O4)cs1)c1ccncc1	< 200 nM
O=C(Nc1nc2cc3c(cc2[nH]1)OC(F)(F)O3)c1cccc(-n2cnnn2)c1	< 200 nM
O=C(Nc1nc2cc3c(cc2[nH]1)OC(F)(F)O3)c1ccncc1	200 to 1000 nM
O=C(Nc1nc(C(=O)Nc2nc3cc4c(cc3[nH]2)OC(F)(F)O4)ns1)c1ccc(F)cc1	< 200 nM
O=C(/C=C/c1ccccc1)Nc1nc(C(=O)Nc2nc3cc4c(cc3[nH]2)OC(F)(F)O4)co1	> 1000 nM
O=C(Nc1nc2cc3c(cc2[nH]1)OC(F)(F)O3)c1csc(-c2cccc(Cl)c2)n1 [Compound 17B]	200 to 1000 nM
O=C(Nc1nc2cc3c(cc2[nH]1)OC(F)(F)O3)c1csc(NC(=O)c2ccco2)n1	< 200 nM
O=C(Nc1nc2cc3c(cc2[nH]1)OC(F)(F)O3)c1cnc(NC(=O)c2ccccc2OC(F)(F)F)o1	200 to 1000 nM
Cc1nn(-c2ccc(Cl)c(Cl)c2)c(C)c1C(=O)Nc1nc2cc3c(cc2[nH]1)OC(F)(F)O3	> 1000 nM
O=C(Nc1nc2cc3c(cc2[nH]1)OC(F)(F)O3)c1csc(-c2ccco2)n1	< 200 nM
COc1ccc(C(=O)Nc2nc(C(=O)Nc3nc4cc5c(cc4[nH]3)OC(F)(F)O5)ns2)cc1	> 1000 nM
Cc1cc(C(=O)Nc2nc3cc4c(cc3[nH]2)OC(F)(F)O4)c(C)o1	> 1000 nM
O=C(Nc1nc2cc3c(cc2[nH]1)OC(F)(F)O3)c1cc([N+](=O)[O-])c[nH]1	< 200 nM
Cc1ccccc1C(=O)Nc1nc2cc3c(cc2[nH]1)OC(F)(F)O3	> 1000 nM
Cc1nnsc1-c1nc(C(=O)Nc2nc3cc4c(cc3[nH]2)OC(F)(F)O4)cs1	< 200 nM
O=C(Nc1nc2cc3c(cc2[nH]1)OC(F)(F)O3)c1ccc(-n2cccn2)cc1	> 1000 nM
O=C(Nc1nc(C(=O)Nc2nc3cc4c(cc3[nH]2)OC(F)(F)O4)cs1)Nc1ccccc1OC(F)(F)F	< 200 nM
CC(=O)c1c[nH]c(C(=O)Nc2nc3cc4c(cc3[nH]2)OC(F)(F)O4)c1	< 200 nM
O=C(Nc1nc(C(=O)Nc2nc3cc4c(cc3[nH]2)OC(F)(F)O4)ns1)c1ccc(Cl)cc1	< 200 nM
Cc1nn(-c2ccccc2)c(C)c1C(=O)Nc1nc2cc3c(cc2[nH]1)OC(F)(F)O3	> 1000 nM
O=C(Cc1cccc(Cl)c1)Nc1nc2cc3c(cc2[nH]1)OC(F)(F)O3	< 200 nM
O=C(Nc1nc2cc3c(cc2[nH]1)OC(F)(F)O3)c1csc(-c2ccc3c(c2)CCO3)c1	200 to 1000 nM
O=C(Nc1nc2cc3c(cc2[nH]1)OC(F)(F)O3)c1csc(-c2ccc3c(c2)CCO3)n1	200 to 1000 nM
O=C(Nc1nc2cc3c(cc2[nH]1)OC(F)(F)O3)c1ccccc1OC(F)(F)F	> 1000 nM
